// sfGFP reporter fluorescence lookup, one value per entry
B1: library; a variant is named by its letters at X, in order (parent)
chain: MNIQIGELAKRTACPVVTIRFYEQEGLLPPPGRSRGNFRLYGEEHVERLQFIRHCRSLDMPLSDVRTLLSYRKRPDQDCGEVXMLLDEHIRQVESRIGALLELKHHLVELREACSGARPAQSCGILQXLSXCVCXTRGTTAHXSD

# Variants of: B1
# MEASUREMENT NOTES: sfGFP reporter fluorescence (15 h) (µM FITC); higher = higher leak
# RUN PARAMETERS: library round: Round 2; ligand: none
Reply: number alone, nothing else.

- MUTATION DESCRIPTOR: "TGSPP"
  VALUE MEASURED: 0.0436

Please find the next variant below.
Req: What sfGFP reporter fluorescence value was documented for this variant, TGCDT L129I ?
Resp: 0.0433
